tgt: pooled human IgG (human IgG1, 2, 3 and 4)
propertyName: Enzyme Activity Endpoint Assay: scIgG (ng/µL)

[[record]]
protein = "PRT-582 (protein) MANQEIRYSKAKPKVITSVWTKGVTPPTQFTKNEDVFHAPYLANQGWYDITKTFNGKDDLLCGAATAGNMLHWWFDQNKEQIERYLKKHPEKQKINFNGEQMFDVKEAIDTKDSQTNSKLFNYFKDKAFPYLSTKHLGVFPDHVIDMFINGYRLSLTNHGPTPVKEQNKDPRGGIFDDVFTRGDQSKLLTSRHDFKEKTLKEISDLIKQELKEGKALGLSHTYANVRINHVINLWGADFDAEGNLVAIYVTDSDSNASIGMKKYYVGVNSAGKVAISAKEIEDDNIGAQVLGLFTLSTGKDIWEKTNLEHHHHHH"
propertyname = "Enzyme Activity Endpoint Assay: scIgG"
unitsymbol = "ng/µL"
valuemeasured = 754

[[record]]
protein = "PRT-400 (protein) MVTSVWTKGVTPPADFTQGEDVFHAPYDANQGWYDITKTFNGKDDLLCGAATAGNMLHWWFDQNKEYIEAYLKKHPEKQKIMFGDQELLDVRKAINTKGSQKNSELFNYFRDKAFPNLSARRLGVMPDLVLDMFINGYYLNVTKTQTTDVNRTYQEKDKRGGIFDAVFTRGDQSKLLTSRHDFKEKGLKEISDLIKQELTEGKALGLSHTYANVRINHVINLWGADFDSDGNLKAIYVTDSDSNASIGMKKYFVGVNSAGKVAISAKEIKEDNIGAQVLGLFTLSTGQDIWNQTN"
propertyname = "Enzyme Activity Endpoint Assay: scIgG"
unitsymbol = "ng/µL"
valuemeasured = 0


Provenance of the data: patent US20250027068
